Tested on: CCRF-CEM/VM1 (teniposide-resistant subline)
Assay: Tumor cell growth inhibition in vitro (XTT, 72 h)
Format: cell-based, human
Conditions: Homo sapiens; CCRF-CEM/VM1, 72 h; read-out: IC50
property.label: pIC50
A value of pIC50 is the negative decimal logarithm of a concentration given in moles per litre.

## Input For the compound shown here, C/C(=C\c1csc(C)n1)C1C[C@@H]2O[C@]2(C)CCC[C@H](C)[C@H](O)[C@@H](C)C(=O)C(C)(C)C(O)CC(=O)N1 (stereo partly shown) , give the reported pIC50.
## Output 7.41

====

Tested on: CCRF-CEM/Taxol (paclitaxel-resistant subline)
Assay: Tumor cell growth inhibition in vitro (XTT, 72 h)
Type: cell-based, human
Settings: Homo sapiens, CCRF-CEM, 72 h
property.label: IC50 (nM)
Express your answer in nM, writing the number without its unit.

## Input For the compound shown here, C/C1=C/C[C@@H](/C(C)=C/c2csc(CO)n2)OC(=O)C[C@H](O)C(C)(C)C(=O)[C@H](C)[C@@H](O)[C@@H](C)CCC1 [dEpoF, 12,13-Desoxyepothilone F] , give the reported IC50.
## Output 5.3

## Input For the compound shown here, C/C1=C/C[C@@H](/C(C)=C/c2csc(C)n2)OC(=O)C[C@H](O)C(C)(C)C(=O)[C@H](C)[C@@H](O)[C@@H](C)CCC1 [dEpoB, 12,13-desoxyepothilone B] , give the reported IC50.
## Output 16.2

## Input For the compound shown here, C/C1=C/CC(/C(C)=C/c2csc(C)n2)NC(=O)CC(O)C(C)(C)C(=O)[C@H](C)[C@@H](O)[C@@H](C)CCC1 (stereo partly drawn) [aza-dEpoB, 12,13,15-desoxy-15(S)-aza-epothilone B] , give the reported IC50.
## Output 791
